# Target System: PI3Kdelta (Homo sapiens (Human), UniProt O00329)
# Sequence (O00329 whole entry, canonical isoform): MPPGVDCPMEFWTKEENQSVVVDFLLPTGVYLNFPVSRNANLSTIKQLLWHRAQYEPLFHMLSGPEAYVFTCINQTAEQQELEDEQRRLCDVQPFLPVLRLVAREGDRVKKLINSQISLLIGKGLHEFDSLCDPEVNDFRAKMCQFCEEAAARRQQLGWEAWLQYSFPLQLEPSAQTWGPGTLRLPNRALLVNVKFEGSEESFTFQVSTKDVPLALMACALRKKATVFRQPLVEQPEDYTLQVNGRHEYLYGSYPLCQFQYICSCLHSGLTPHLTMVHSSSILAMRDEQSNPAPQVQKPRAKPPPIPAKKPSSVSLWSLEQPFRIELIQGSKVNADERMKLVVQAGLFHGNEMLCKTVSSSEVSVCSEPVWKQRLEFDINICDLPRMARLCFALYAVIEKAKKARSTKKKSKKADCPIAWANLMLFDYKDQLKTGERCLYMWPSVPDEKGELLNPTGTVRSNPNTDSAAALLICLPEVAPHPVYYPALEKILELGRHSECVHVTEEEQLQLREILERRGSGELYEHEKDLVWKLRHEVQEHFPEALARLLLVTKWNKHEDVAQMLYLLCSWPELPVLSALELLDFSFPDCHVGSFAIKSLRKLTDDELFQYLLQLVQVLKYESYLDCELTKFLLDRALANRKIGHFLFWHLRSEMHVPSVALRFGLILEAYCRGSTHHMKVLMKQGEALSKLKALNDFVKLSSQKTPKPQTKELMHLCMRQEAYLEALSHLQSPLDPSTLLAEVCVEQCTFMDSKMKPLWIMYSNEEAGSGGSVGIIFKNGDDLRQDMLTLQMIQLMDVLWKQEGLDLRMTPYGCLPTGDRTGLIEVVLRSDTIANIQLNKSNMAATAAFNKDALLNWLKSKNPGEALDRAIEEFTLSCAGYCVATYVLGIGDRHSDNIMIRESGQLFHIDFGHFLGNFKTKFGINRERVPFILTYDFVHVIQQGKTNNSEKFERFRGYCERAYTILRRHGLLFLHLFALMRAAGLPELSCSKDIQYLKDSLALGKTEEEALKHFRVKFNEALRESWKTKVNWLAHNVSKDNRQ
# Sequence (P27986 whole entry partner, canonical isoform): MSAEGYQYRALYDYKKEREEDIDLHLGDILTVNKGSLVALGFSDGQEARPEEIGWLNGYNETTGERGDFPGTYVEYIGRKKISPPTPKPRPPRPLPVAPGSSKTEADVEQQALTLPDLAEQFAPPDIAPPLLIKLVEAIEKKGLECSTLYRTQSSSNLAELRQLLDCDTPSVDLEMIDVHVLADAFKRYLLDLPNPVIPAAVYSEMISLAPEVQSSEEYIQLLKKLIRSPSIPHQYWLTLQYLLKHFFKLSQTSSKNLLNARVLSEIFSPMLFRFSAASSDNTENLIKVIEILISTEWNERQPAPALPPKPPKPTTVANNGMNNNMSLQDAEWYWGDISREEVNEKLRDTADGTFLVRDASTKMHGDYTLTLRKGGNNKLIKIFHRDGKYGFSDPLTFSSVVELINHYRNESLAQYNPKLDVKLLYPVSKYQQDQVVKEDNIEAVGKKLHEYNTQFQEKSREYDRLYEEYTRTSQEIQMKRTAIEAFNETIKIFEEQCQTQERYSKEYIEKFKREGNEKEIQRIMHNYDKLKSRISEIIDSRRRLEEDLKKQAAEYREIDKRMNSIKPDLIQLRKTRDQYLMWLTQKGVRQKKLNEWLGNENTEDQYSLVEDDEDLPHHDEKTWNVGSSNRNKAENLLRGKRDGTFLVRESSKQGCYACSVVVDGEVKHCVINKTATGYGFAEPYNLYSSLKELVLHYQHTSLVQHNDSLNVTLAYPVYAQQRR
# Assay Details: HTRF PI3K biochemical assay, delta isoform
# Experimental Parameters: 0.3 nM enzyme, 100 uM ATP, 5 uM PIP2, form screened: Neutral
pIC50: −log10 of the molar value.
Measured Parameter: pIC50

>  <Smiles Str>
CC[C@H](Nc1ncnc2c1nc(C(F)F)n2CC)C(=O)N1C[C@@H](C)O[C@@H](C)C1

>  <pIC50>
7.00

$$$$

1: CCn1c(C(F)F)nc2c(N[C@@H](C)C(=O)N3C[C@@H](C)O[C@@H](C)C3)ncnc21
2: CC[C@H](Nc1ncnc2c1nc(-c1cnc(C)nc1)n2CC)C(=O)N1CC(=O)NC(C)(C)C1
Given the listed records, identify the one among 1 and 2 with higher pIC50. Lab log: write the label of the selected item as the result.
2
(2: 7.72, 1: 6.64)

----------
# Target System: PI3Kalpha (Homo sapiens (Human))
# Sequence (P42336 whole entry, canonical isoform): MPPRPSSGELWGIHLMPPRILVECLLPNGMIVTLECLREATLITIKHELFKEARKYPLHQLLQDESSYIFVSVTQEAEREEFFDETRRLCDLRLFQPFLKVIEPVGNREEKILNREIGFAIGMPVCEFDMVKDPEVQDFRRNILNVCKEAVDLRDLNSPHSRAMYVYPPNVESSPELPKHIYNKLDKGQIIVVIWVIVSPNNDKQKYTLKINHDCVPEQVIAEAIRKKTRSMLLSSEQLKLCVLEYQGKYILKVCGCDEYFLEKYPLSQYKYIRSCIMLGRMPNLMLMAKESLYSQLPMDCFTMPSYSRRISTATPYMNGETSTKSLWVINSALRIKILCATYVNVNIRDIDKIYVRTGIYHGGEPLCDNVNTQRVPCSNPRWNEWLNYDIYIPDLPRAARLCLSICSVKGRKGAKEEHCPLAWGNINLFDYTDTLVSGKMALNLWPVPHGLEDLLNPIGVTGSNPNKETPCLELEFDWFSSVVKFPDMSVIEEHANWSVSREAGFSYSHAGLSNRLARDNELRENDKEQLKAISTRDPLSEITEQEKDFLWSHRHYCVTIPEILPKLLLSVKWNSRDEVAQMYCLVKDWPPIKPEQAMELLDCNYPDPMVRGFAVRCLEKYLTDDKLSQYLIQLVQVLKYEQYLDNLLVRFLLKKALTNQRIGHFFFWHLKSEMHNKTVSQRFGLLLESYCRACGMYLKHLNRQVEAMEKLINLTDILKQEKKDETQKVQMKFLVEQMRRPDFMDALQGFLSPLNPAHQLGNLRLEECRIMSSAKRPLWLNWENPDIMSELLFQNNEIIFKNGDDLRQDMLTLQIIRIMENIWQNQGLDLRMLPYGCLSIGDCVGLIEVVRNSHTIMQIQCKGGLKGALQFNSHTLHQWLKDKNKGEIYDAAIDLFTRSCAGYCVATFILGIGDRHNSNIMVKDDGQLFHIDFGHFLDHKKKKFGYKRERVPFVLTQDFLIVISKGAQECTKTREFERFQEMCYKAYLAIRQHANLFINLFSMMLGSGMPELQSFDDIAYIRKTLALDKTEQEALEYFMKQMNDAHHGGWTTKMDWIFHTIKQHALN
# Sequence (P27986 whole entry partner, canonical isoform): as the sequence (P27986 whole entry partner, canonical isoform) above
# Assay Details: HTRF PI3K biochemical assay, alpha isoform (selectivity versus PI3Kalpha)
# Experimental Parameters: relative ratio (PI3K-alpha IC50 value/PI3K-delta IC50 value); form screened: Neutral
Selectivity versus PI3Kalpha listing for selected compounds.

>  <Compound>
CC[C@H](Nc1ncnc2c1nc(-c1cnc(C)nc1)n2CC)C(=O)N1CC(=O)N(C)C(C)C1 (single isomer, unassigned) [Compound 4-6]

>  <Selectivity versus PI3Kalpha>
>10

$$$$
>  <Compound>
CC[C@H](Nc1ncnc2c1nc(-c1cnc(C)nc1)n2CC)C(=O)N1CC2CCS(=O)(=O)C2C1 (mixture of isomers)

>  <Selectivity versus PI3Kalpha>
>10

$$$$
>  <Compound>
CCn1c(-c2cnc(C)nc2)nc2c(N[C@@H](CO)C(=O)N3C[C@@H](C)O[C@@H](C)C3)ncnc21

>  <Selectivity versus PI3Kalpha>
>10

$$$$

Give the measured Selectivity versus PI3Kalpha of CC[C@H](Nc1ncnc2c1nc(-c1cnc(C)nc1)n2CC)C(=O)N1CC[C@@H]2CCCC[C@@H]2C1 .
>10

----------
# Target System: PI3Kdelta (Homo sapiens (Human))
# Assay Details: HTRF PI3K biochemical assay, delta isoform
# Experimental Parameters: 0.3 nM enzyme, 100 uM ATP, 5 uM PIP2, form screened: Neutral
Measured Parameter: IC50 (µM)

Answered examples (3):
>  <Molecule>
CC[C@H](Nc1ncnc2c1nc(-c1cnc(C)nc1)n2CC)C(=O)N1CCOC(C)(C)C1

>  <IC50 (µM)>
0.0098

$$$$
>  <Molecule>
CC[C@H](Nc1ncnc2c1nc(-c1cnc(C)nc1)n2CC)C(=O)N1CCOC(COC)C1 (stereo partly drawn)

>  <IC50 (µM)>
0.039

$$$$
>  <Molecule>
CCn1c(-c2cnc(C)nc2)nc2c(N[C@@H](C)CC(=O)N3C[C@@H](C)O[C@@H](C)C3)ncnc21

>  <IC50 (µM)>
0.037

$$$$

a: CCn1c(-c2cnc(C)nc2)nc2c(N[C@@H](C)C(=O)N3C[C@@H](C)O[C@@H](C)C3)ncnc21
b: CCn1c(-c2cnc(C)nc2)nc2c(NC3(C(=O)N4CCC(F)(F)CC4)CC3)ncnc21
c: CC[C@H](Nc1ncnc2c1nc(-c1cnc(C)nc1)n2CC)C(=O)N1CCC(C#N)CC1
d: CC[C@H](Nc1ncnc2c1nc(-c1cnc(C)nc1)n2CC)C(=O)N1C[C@@H](C)O[C@@H](C)C1
e: CCC(Nc1ncnc2c1nc(-c1cnc(C)nc1)n2CC)C(=O)N1CCn2c(CC(C)C)nnc2C1 (single isomer, unassigned)
Sort by IC50, descending. Response field: labels, in requested order.
b, e, c, a, d
(b: 0.59 µM, e: 0.038 µM, c: 0.026 µM, a: 0.012 µM, d: 0.0061 µM)

a: CC[C@H](Nc1ncnc2c1nc(-c1cnc(C)nc1)n2CC)C(=O)N1C[C@H](C)O[C@@H](C)C1 (stereo in doubt)
b: CCn1c(-c2cnc(C)nc2)nc2c(N[C@@H](C)CC(=O)N3CCCC3)ncnc21
Hi, I'm comparing a with b and wondering which one has the bigger number for IC50. Any idea? Your answer should be the label of the entry you select.
b
(b: 0.063 µM, a: 0.0091 µM)

a: CC[C@H](Nc1ncnc2c1nc(-c1cnc(C)nc1)n2CC)C(=O)N1CCCC(C)C1 (mixture of isomers)
b: CCC(Oc1ncnc2c1nc(-c1cnn(CC)c1C)n2C)C(=O)N1CCCCC1 (racemic)
Which value of IC50 is numerically greater: that of a or that of b ? Kindly give the label for the entry you pick.
b

P: CC[C@H](Nc1ncnc2c1nc(-c1cnc(C)nc1)n2CC)C(=O)N1CCSC1C (mixture of isomers)
Q: CC[C@H](Nc1ncnc2c1nc(-c1cnc(C)nc1)n2CC)C(=O)N1CC(OC)C1
Which value of IC50 is smaller, the one for P or the one for Q ? Provide the label of your selected option as the answer.
P
